melting point reference

{"molecule": "CN(C)S(=O)(=O)c1ccc(Nc2cc(-c3ccccc3)nc3c(Br)cnn23)cc1", "melting point": "237 to 239 °C"}
{"molecule": "CN(C)CCCNS(=O)(=O)c1ccc(Nc2cc(-c3ccccc3)nc3c(Br)cnn23)cc1 [Example 53]", "melting point": "78 to 80 °C"}
{"molecule": "CC(C)(C)c1cc(Nc2ccccc2)n2ncc(Br)c2n1", "melting point": "144 °C"}
{"molecule": "CS(=O)(=O)c1ccc(Nc2cc(-c3ccc(Cl)cc3)nc3c(Br)cnn23)cc1", "melting point": "249 to 253 °C"}
{"molecule": "CNS(=O)(=O)c1ccc(Nc2cc(-c3ccccc3)nc3c(Br)cnn23)cc1 [Example 32]", "melting point": "231 to 233 °C"}
{"molecule": "O=S(=O)(O)c1ccc(Nc2cc(-c3ccccc3)nc3c(Br)cnn23)cc1 [Example 22]", "melting point": "> 250 °C"}
{"molecule": "CC(C)c1cc(Nc2ccccc2)n2ncc(Br)c2n1", "melting point": "166 to 168 °C"}
{"molecule": "O=S(=O)(Nc1ccncc1)c1ccc(Nc2cc(-c3ccccc3)nc3c(Br)cnn23)cc1 [Example 38]", "melting point": "192 to 195 °C"}
{"molecule": "CC(C)c1cc(Nc2ccc(S(C)(=O)=O)cc2)n2ncc(Br)c2n1", "melting point": "214 to 215 °C"}

---

melting point reference
measured.parameter: melting point

{"compound": "CC(CO)NS(=O)(=O)c1ccc(Nc2cc(-c3ccccc3)nc3c(Br)cnn23)cc1 (stereo not shown)", "test.value": "> 200 °C (dec.)"}
{"compound": "CN(C)CC(C)(C)CNS(=O)(=O)c1ccc(Nc2cc(-c3ccccc3)nc3c(Br)cnn23)cc1", "test.value": "163 to 165 °C"}
{"compound": "COC(=O)CNS(=O)(=O)c1ccc(Nc2cc(-c3ccccc3)nc3c(Br)cnn23)cc1", "test.value": "182 to 184 °C"}
{"compound": "CS(=O)(=O)c1ccc(Nc2cc(-c3cccc(C(F)(F)F)c3)nc3c(Br)cnn23)cc1", "test.value": "210 to 212 °C"}
{"compound": "Fc1ccccc1-c1cc(Nc2ccccc2)n2ncc(Cl)c2n1", "test.value": "112 to 116 °C"}
{"compound": "O=S(=O)(O)c1cccc(Nc2cc(-c3ccccc3)nc3c(Br)cnn23)c1", "test.value": "206 to 208 °C"}
{"compound": "O=S(=O)(Nc1ccccc1)c1ccc(Nc2cc(-c3ccccc3)nc3c(Br)cnn23)cc1", "test.value": "147 to 150 °C"}
{"compound": "CS(=O)(=O)c1ccc(Nc2cc(-c3ccccc3F)nc3c(Cl)cnn23)cc1", "test.value": "232 to 235 °C"}
{"compound": "COCCNS(=O)(=O)c1ccc(Nc2cc(-c3ccccc3)nc3c(Br)cnn23)cc1", "test.value": "172 to 173 °C"}
{"compound": "O=S(=O)(O)CCNS(=O)(=O)c1ccc(Nc2cc(-c3ccccc3)nc3c(Br)cnn23)cc1", "test.value": "206 to 208 °C"}

---

melting point reference

{"compound": "CC(CO)(CO)NS(=O)(=O)c1ccc(Nc2cc(-c3ccccc3)nc3c(Br)cnn23)cc1", "melting point": "98 to 100 °C"}
{"compound": "CC(C)(C)OC(=O)N1CCC(NS(=O)(=O)c2ccc(Nc3cc(-c4ccccc4)nc4c(Br)cnn34)cc2)CC1", "melting point": "127 to 129 °C"}
{"compound": "O=S(=O)(N[C@H](CO)Cc1ccccc1)c1ccc(Nc2cc(-c3ccccc3)nc3c(Br)cnn23)cc1", "melting point": "102 to 105 °C"}
{"compound": "O=S(=O)(c1ccc(Nc2cc(-c3ccccc3)nc3c(Br)cnn23)cc1)N(CCO)CCO", "melting point": "90 to 92 °C"}
{"compound": "O=S(=O)(NCc1cccnc1)c1ccc(Nc2cc(-c3ccccc3)nc3c(Br)cnn23)cc1", "melting point": "110 to 114 °C"}
{"compound": "O=S(=O)(N[C@@H](CO)Cc1ccccc1)c1ccc(Nc2cc(-c3ccccc3)nc3c(Br)cnn23)cc1", "melting point": "108 to 110 °C"}
{"compound": "CC(C)(C)OC(=O)NCCNS(=O)(=O)c1ccc(Nc2cc(-c3ccccc3)nc3c(Br)cnn23)cc1", "melting point": "195 to 197 °C"}
{"compound": "O=S(=O)(NCc1ccccn1)c1ccc(Nc2cc(-c3ccccc3)nc3c(Br)cnn23)cc1", "melting point": "101 to 103 °C"}
{"compound": "CCc1cnn2c(Nc3ccc(S(=O)(=O)NCCN(C)C)cc3)cc(-c3ccccc3)nc12", "melting point": "99 to 101 °C"}
{"compound": "O=S(=O)(NCCO)c1cccc(Nc2cc(-c3ccccc3)nc3c(Br)cnn23)c1", "melting point": "87 to 90 °C"}
{"compound": "CN1CCN(S(=O)(=O)c2ccc(Nc3cc(-c4ccccc4)nc4c(Br)cnn34)cc2)CC1", "melting point": "228 to 230 °C"}
{"compound": "CCc1cnn2c(Nc3ccc(S(=O)(=O)O)cc3)cc(-c3ccccc3)nc12", "melting point": "> 250 °C"}
{"compound": "CN(C)CCNS(=O)(=O)c1ccc(Nc2cc(-c3ccccc3)nc3c(Br)cnn23)cc1", "melting point": "165 to 167 °C"}
{"compound": "O=S(=O)(O)c1ccc(Nc2cc(-c3ccccc3F)nc3c(Br)cnn23)cc1", "melting point": "> 250 °C"}
{"compound": "O=S(=O)(NC(CO)CO)c1ccc(Nc2cc(-c3ccccc3)nc3c(Br)cnn23)cc1", "melting point": "122 to 124 °C"}
{"compound": "CS(=O)(=O)c1ccc(Nc2cc(-c3ccccc3)nc3c(Br)cnn23)cc1", "melting point": "202 to 204 °C"}
{"compound": "CC(O)CNS(=O)(=O)c1cccc(Nc2cc(-c3ccccc3)nc3c(Br)cnn23)c1 (stereo not drawn)", "melting point": "115 to 120 °C"}
{"compound": "CS(=O)(=O)c1ccc(Nc2cc(-c3ccccc3F)nc3c(Br)cnn23)cc1", "melting point": "117 to 118 °C"}

The measurements presented in this section are drawn from patent US7205308B2.
